Target: alkaline phosphatase (Bos taurus)
Sequence (P19111 20-506 limits assumed): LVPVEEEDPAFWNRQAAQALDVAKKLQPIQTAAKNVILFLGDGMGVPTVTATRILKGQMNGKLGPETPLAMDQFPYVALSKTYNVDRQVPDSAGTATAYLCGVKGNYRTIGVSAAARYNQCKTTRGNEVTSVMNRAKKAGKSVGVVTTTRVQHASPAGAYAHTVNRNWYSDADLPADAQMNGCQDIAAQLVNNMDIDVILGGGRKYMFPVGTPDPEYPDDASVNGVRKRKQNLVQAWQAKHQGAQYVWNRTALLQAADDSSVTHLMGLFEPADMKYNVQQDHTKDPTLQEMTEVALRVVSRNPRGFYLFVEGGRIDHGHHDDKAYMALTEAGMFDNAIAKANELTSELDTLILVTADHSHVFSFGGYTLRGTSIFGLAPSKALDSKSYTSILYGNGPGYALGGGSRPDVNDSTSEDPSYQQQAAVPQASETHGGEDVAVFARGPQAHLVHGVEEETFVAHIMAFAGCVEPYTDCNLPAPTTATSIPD
Assay: Chemiluminescent signal and signal:background with enhancer polymers (Example XVII)
Format: biochemical
Conditions: polymer S/TMQ(1:2); 5 min
endpoint.label: S/N

- compound: "COC1(c2cccc(OP(=O)(O)O)c2)OOC12C1CC3CC2CC(O)(C3)C1 (single isomer, unassigned) [A-OH-AMPPD]"
  result: 112.5
- compound: "COC1(c2cccc(OP(=O)(O)O)c2)OOC12C1CC3CC2CC(O)(C3)C1 (single isomer, unassigned) [B-OH-AMPPD]"
  result: 20.6
- compound: "COC1(c2cccc(OP(=O)(O)O)c2)OOC12C1CC3CC(C1)CC2C3 (stereo not drawn) [AMPPD, reference compound]"
  result: 20.2
